Where do these numbers come from? They come from patent EP0076452A2.

tested on: Proteus rettgeri 856; assay: Antibiotic activity in vitro, agar dilution method in DST agar (MIC); assay type: cell-based; details: Providencia rettgeri, 856, in vitro, agar dilution, DST Agar; read-out: MIC Proteus rettgeri 856
quantity.name: MIC (µg/mL)

// worked examples, MIC included
CC(C)(ON=C(C(=O)NC1C(=O)N2C(C(=O)[O-])=C(C[n+]3ccccc3)CSC12)c1coc(N)n1)C(=O)O (centres unmarked) = 0.01
CO/N=C(\C(=O)N[C@@H]1C(=O)N2C(C(=O)O)=C(CSc3nnnn3CCN(C)C)CS[C@H]12)c1coc(N)n1.Cl.Cl = 0.02
CC(C)(O/N=C(\C(=O)N[C@@H]1C(=O)N2C(C(=O)[O-])=C(C[n+]3ccccc3)CS[C@H]12)c1coc(N)n1)C(=O)O = 0.2

A = CC(=O)OCC1=C(C(=O)O)N2C(=O)[C@@H](NC(=O)/C(=N\O)c3coc(N)n3)[C@H]2SC1
B = CC(C)(ON=C(C(=O)NC1C(=O)N2C(C(=O)[O-])=C(C[n+]3ccc(C(N)=O)cc3)CSC12)c1coc(N)n1)C(=O)O (centres unmarked)
Lab note: check whether A or B has the lower measured MIC. Label of pick, please.
A
(A: 0.02 µg/mL, B: 0.2 µg/mL)

I = CC(C)(O/N=C(\C(=O)N[C@@H]1C(=O)N2C(C(=O)[O-])=C(C[n+]3ccc(C(N)=O)cc3)CS[C@H]12)c1coc(N)n1)C(=O)O
II = CO/N=C(/C(=O)N[C@@H]1C(=O)N2C(C(=O)O)=C(CSc3nnnn3CCN(C)C)CS[C@H]12)c1coc(N)n1
Lab note: check whether I or II has the lower measured MIC. Label of pick, please.
I
(I: 0.5 µg/mL, II: 2 µg/mL)
